Property: Detection limit; scope: individual compounds
Tested on: test organism of Delvotest SP-NT
Experimental Protocol: Microbial growth inhibition test (DSM Delvotest SP-NT, reference or modified with streptomycin in the test medium): detection limit of antibiotics in spiked milk
Assay type: cell-based
Conditions: Streptomycin concentration in test 1000 ppb; spiked milk, 64° C., cut-off Z-value 0
Supply the numeric figure in ppb, leaving out any unit text.

See these solved cases before continuing.
CC1(C)S[C@@H]2[C@H](NC(=O)Cc3ccccc3)C(=O)N2[C@H]1C(=O)O | 1.07
CN(C)[C@@H]1C(O)=C(C(N)=O)C(=O)[C@@]2(O)C(O)=C3C(=O)c4c(O)cccc4[C@@](C)(O)[C@H]3[C@H](O)[C@@H]12 | 343

In: Give the measured Detection limit of CN[C@@H]1[C@H](O[C@H]2[C@H](O[C@H]3[C@H](O)[C@@H](O)[C@H](NC(=N)N)[C@@H](O)[C@@H]3NC(=N)N)O[C@@H](C)[C@]2(O)CO)O[C@@H](CO)[C@H](O)[C@H]1O [DH-streptomycin, dihydrostreptomycin] .
Out: 445

In: Give the measured Detection limit of [H]/N=C(/N)N[C@H]1[C@H](O)[C@@H](O)[C@H](O[C@@H]2O[C@@H](C)[C@](O)(C=O)[C@H]2O[C@@H]2O[C@@H](CO)[C@H](O)[C@@H](O)[C@@H]2NC)[C@@H](N/C(N)=N\[H])[C@@H]1O .
Out: 676
